Target: T1, L-selectin (LS-Rg) (Homo sapiens, UniProt P14151 P14151:39-332)
T1 sequence: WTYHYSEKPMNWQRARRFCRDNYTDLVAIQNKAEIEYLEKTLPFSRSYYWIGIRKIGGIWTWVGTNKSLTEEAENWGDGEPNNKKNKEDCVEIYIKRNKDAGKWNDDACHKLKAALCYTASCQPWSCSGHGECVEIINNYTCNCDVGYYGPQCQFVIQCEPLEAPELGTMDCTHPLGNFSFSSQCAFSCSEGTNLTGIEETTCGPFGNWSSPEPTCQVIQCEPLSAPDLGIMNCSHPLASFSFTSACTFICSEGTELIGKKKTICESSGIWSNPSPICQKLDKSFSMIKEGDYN
Assay: filter; room temperature; repeat of Table 13 (57 pM)
Details: tags: human IgG2 Fc fusion; chain copies: 2 (stated dimer)
measuredEndpoint: Kd (nM)

INSERT INTO assay_data (binder, u, recordednumber) VALUES
  ('LD230 (ssDNA) DNA: CTACCTACGATCTGACTAGCTGCACACCTGAGGGTTACAAGGCGCTAGACGTAACCTCTCGCTTACTCTCATGTAGTTCC', 'nM', 0.044);
